These entries and their values trace back to patent US8975406B2.

Molecular target: Recombinant human JAK1 (Homo sapiens, UniProt P23458)
Construct: catalytic domain (amino acids 866-1154; catalog number PV4774)
Sequence (P23458 866-1154): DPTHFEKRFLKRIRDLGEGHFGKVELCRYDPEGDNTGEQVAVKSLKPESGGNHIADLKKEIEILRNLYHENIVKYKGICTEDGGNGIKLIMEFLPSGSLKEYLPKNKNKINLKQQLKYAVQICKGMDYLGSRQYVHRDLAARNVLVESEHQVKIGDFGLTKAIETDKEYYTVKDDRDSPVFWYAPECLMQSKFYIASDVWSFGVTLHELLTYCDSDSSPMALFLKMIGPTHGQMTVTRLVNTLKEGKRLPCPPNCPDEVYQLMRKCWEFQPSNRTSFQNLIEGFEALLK
Test: JAK1 Ulight-JAK1 peptide assay
Conditions: Ulight-JAK1(tyr1023) peptide, 7 μM ATP
pIC50: −log10 of the molar value.
Overview of reported pIC50 across a group of compounds:

Recorded pIC50, per entry:
COc1ccc(-c2cccn3nc(NC(=O)C4CC4)c(-c4ccccc4)c23)cc1 [Compound 7]; < 6.00
O=C(Nc1cc2c(-c3ccc(CN4CCCCC45COC5)cc3)cccn2n1)C1CC1 [Compound 48]; 7.00 to 11.00
CS(=O)(=O)N1CCN(Cc2ccc(-c3cccn4nc(NC(=O)C5CC5)cc34)cc2)CC1 [Compound 15]; 7.00 to 11.00
O=C(Nc1nn2cccc(-c3ccc(C(=O)N4CCCCC4)cc3)c2c1Cl)C1CC1 [Compound 16]; 6.30 to 7.00
CC(=O)Nc1cc2c(-c3ccc(C(=O)N4CCCCC4)cc3)cccn2n1 [Compound 40]; 6.30 to 7.00

## Input Given the entry O=C(Nc1nn2cccc(-c3ccc(CN4CCS(=O)(=O)CC4)cc3)c2c1Cl)C1CC1 [Compound 13] , what pIC50 was observed with Recombinant human JAK1 (Homo sapiens, UniProt P23458)?
## Output 7.00 to 11.00

## Input Give Recombinant human JAK1 (Homo sapiens, UniProt P23458) pIC50 for CC(=O)Nc1cc2c(-c3ccc(CN4CCC(S(C)(=O)=O)CC4)c(F)c3)cccn2n1 [Compound 29]
## Output 7.00 to 11.00

## Input Reported pIC50 for Recombinant human JAK1 (Homo sapiens, UniProt P23458), given CC(=O)Nc1cc2c(-c3cnc(CN4CCN(S(C)(=O)=O)CC4)c(F)c3)cccn2n1 [Compound 26] ?
## Output 6.30 to 7.00
